Study system: Tumor Necrosis Factor-alpha (TNF-α)
Sequence (P01375 77-233): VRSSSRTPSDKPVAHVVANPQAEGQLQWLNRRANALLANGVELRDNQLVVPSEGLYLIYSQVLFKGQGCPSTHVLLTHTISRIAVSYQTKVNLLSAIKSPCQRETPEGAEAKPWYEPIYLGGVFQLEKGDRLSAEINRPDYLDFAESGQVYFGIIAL
Test description: SPR equilibrium; against the TNF1 lead
Measured Component Binding ΔG Contribution, listed per entry for reference.
Outcome measure: Component Binding ΔG Contribution

INSERT INTO assay_data (binder, test_result) VALUES
  ('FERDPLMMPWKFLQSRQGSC (modifications not checked) [TNF1 S11K point-mutant]', '-0.82 kcal/mol'),
  ('FERDYLMMPWSFLQSRQGSC (modifications not checked) [TNF1 P5Y point-mutant]', '-0.58 kcal/mol'),
  ('FERDPLKMPWSFLQSRQGSC (modifications not checked) [TNF1 M7K point-mutant]', '-0.72 kcal/mol'),
  ('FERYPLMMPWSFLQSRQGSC (modifications not checked) [TNF1 D4Y point-mutant]', '-0.74 kcal/mol');

Provenance of the data: patent US20120065123A1
